The measured values listed here are drawn from the supplement of paper PMC8882468.

Listed here: items and their measured CTG-3D luminescence at 96 h.
# Tested on: HCI-003.E2 (organoid from an ER-positive breast cancer xenograft)
# procedure_summary: CTG-3D luminescence at 96 h relative to day-0 seeding control (ratio to day 0); higher = more growth / less cytotoxicity; PDxO 3D drug screen, 96 h, CTG-3D normalised to day-0 seeding control.
# run_parameters: 625 fM
property_measured: CTG-3D luminescence at 96 h

INSERT INTO assay_data (compound, system_tested, reported_result) VALUES
  ('NC(=O)Nc1cc(-c2cccc(F)c2)sc1C(=O)N[C@H]1CCCNC1 [AZD7762]', 'HCI-003.E2', 2.21),
  ('CNC(=O)c1cccc(-c2ccc3c(N4CCOC[C@@H]4C)nc(N4CCOC[C@@H]4C)nc3n2)c1 [vistusertib]', 'HCI-003.E2', 2.1),
  ('CC(C)n1nc(-c2ccc3oc(N)nc3c2)c2c(N)ncnc21 [sapanisertib]', 'HCI-003.E2', 2.03),
  ('CC1(C)CCC(c2ccc(Cl)cc2)=C(CN2CCN(c3ccc(C(=O)NS(=O)(=O)c4ccc(N[C@H](CCN5CCOCC5)CSc5ccccc5)c(S(=O)(=O)C(F)(F)F)c4)cc3)CC2)C1 [navitoclax]', 'HCI-003.E2', 1.76),
  ('CS(=O)(=O)c1ccc(C(=O)Nc2ccc(Cl)c(-c3ccccn3)c2)c(Cl)c1 [vismodegib]', 'HCI-003.E2', 1.94),
  ('C[C@H](NC(=O)CCC(F)(F)F)C(=O)N[C@@H]1C(=O)N(CCO)c2ncccc2-c2ccccc21 [crenigacestat]', 'HCI-003.E2', 2.07),
  ('COc1cccc2c1C(=O)c1c(O)c3c(c(O)c1C2=O)C[C@@](O)(C(=O)CO)C[C@@H]3O[C@H]1C[C@H](N)[C@H](O)[C@H](C)O1 [doxorubicin]', 'HCI-003.E2', 2.13),
  ('Cc1cc(Nc2ncnc3ccc(NC4=NC(C)(C)CO4)cc23)ccc1Oc1ccn2ncnc2c1 [tucatinib]', 'HCI-003.E2', 2.12),
  ('CN(Cc1cnc2nc(N)nc(N)c2n1)c1ccc(C(=O)N[C@@H](CCC(=O)O)C(=O)O)cc1 [methotrexate]', 'HCI-003.E2', 2.12);
